Target: A2a receptors (Rattus norvegicus, UniProt P30543)
Construct: Displacement of specific [^3 H]; from tissue; host or cells: rat striatal membranes
Sequence (P30543 whole entry): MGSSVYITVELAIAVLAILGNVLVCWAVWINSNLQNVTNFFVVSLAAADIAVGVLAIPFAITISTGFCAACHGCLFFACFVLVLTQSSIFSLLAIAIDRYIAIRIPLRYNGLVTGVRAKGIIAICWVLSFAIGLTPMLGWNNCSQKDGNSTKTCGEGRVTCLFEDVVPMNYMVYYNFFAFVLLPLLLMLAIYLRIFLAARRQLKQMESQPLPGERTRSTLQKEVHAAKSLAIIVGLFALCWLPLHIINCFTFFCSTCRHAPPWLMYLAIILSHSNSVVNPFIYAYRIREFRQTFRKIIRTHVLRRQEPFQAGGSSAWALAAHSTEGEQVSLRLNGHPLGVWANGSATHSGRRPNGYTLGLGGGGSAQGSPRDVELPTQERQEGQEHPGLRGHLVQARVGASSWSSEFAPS
Test: radioligand binding, displacement of specific [3H]CGS 21680 binding in rat striatal membranes
Details: Table 12; 10^-4 M; read-out: % inhibition rA2A
Reported metric: inhibition at 100 µM
Give me the value, and tack the unit on after it.

Example entries begin here.
Q. Which inhibition at 100 µM is listed for CCOC(=O)C1=C(C)NC(c2ccccc2)=C(C(=O)O)C1C#Cc1ccccc1 (racemic) [Compound 131] ?
A. 16%

Q. Entry CCOC(=O)C1=C(C)NC(c2ccccc2)=C(C(=O)OCC)C1C#Cc1ccccc1 (centres unmarked) [Compound 109] please
A. 25%

New cases:
Q. Which inhibition at 100 µM value is on record for CCNC(=O)C1=C(c2ccccc2)NC(C)=C(C(=O)OCC)C1C#Cc1ccccc1 (racemic) [Compound 132] ?
A. 47%

Q. Next molecule up: CCNC(=O)C1=C(c2ccccc2)N(COCC)C(C)=C(C(=O)OCC)C1C#Cc1ccccc1 (centres unmarked) [Compound 140]
A. 35%

Q. Now this one: CCOC(=O)C1=C(C)NC(c2ccccc2)=C(C(=O)OC(C)(C)C)C1C#Cc1ccccc1 (racemic) [Compound 127]
A. 27%
